// data source = patent US20120095036A1

Reported IC50 by item:
test system: Aβ42; experiment: Method 2: Aβ42 Alphalisa on supernatant of SKNBE2 cells carrying APP 695 wild type; type: cell-based; conditions: Homo sapiens, SKNBE2 cells APP 695 wild type, overnight
Recorded Metric: IC50

Test Smiles | Test Target | Recorded Metric | Result
COc1cc(Nc2nc(C)cc3cn(CC(F)(F)F)nc23)ccc1-n1cnc(C)n1 | Aβ42 | IC50 | > 3000 nM
COc1cc(Nc2cc(C)nc3cn(CC(F)(F)F)nc23)ccc1-c1cnc(C)o1 | Aβ42 | IC50 | 234 nM
COc1cc(Nc2cccc3cn(C)nc23)ccc1-n1cnc(C)n1 | Aβ42 | IC50 | > 3000 nM
